test system: tumor cell proliferation; assay: suppression of tumor cell proliferation, cell line not stated; format: cell-based; settings: read-out: IC50, suppressing tumor cell proliferation
endpointLabel: pIC50
The quantity pIC50 is defined as the negative base-10 logarithm of the molar concentration.

// pIC50 lookup, compound = COc1cc(/C=C\c2ccc(OC)cc2N)cc(OC)c1.O=C(O)C(=O)O [4b, oxalate] , result: 7.10

====

test system: SNU423 hepatocellular carcinoma cells; test: Alamar Blue cell growth inhibition, SNU423; type: cell-based; settings: read-out: IC50 (50% growth inhibition); SNU423, 48 hours; hydrochloride
Structures can show the parent of a compound that is named as a salt.
endpointLabel: IC50 (nM)
Could you give me the number in nM? Just the number is fine.

// field: IC50; key: COc1cc(/C=C\c2ccc(OC)c(N)c2)cc(OCCO)c1 [10a, hydrochloride] ; value = 300

====

test system: SNU423 hepatocellular carcinoma cells; assay: Alamar Blue cell growth inhibition, SNU423; assay type: cell-based; details: SNU423, 48 hours
endpointLabel: effective concentration, blocking cell proliferation

Worked examples, 3 molecules total:
COc1cc(/C=C\c2ccc3c(ccn3C)c2)cc(OC)c1 [13a]: 0.03 µM
COc1cc(/C=C\c2ccc(OC)c(C(=O)O)c2)cc(OC)c1: > 10 µM
COc1ccc(/C=C\c2cc(OC)c(OC)c(OC)c2)cc1O [combretastatin A4, reference compound]: 0.003 µM

Next, consider the following molecule.
Measured effective concentration, blocking cell proliferation of COc1cc(/C=C\c2ccc(OC)c(N)c2)cc(OC)c1 : 0.03 µM

====

// reported effective / active concentration per item
tested on: SKOV3 ovarian cancer cells; assay: Alamar Blue cell growth inhibition, SKOV3; assay type: cell-based; conditions: SKOV3, 48 hours
Counter-ions that a name gives are not always drawn.
The answer consists of two parts: a number and, after it, its unit.

Here is how some compounds turned out for effective / active concentration.
COc1cc(/C=C\c2ccc(OC)c(N)c2)cc(OCCO)c1 [10a, hydrochloride]: 0.1 µM
COc1cc(/C=C\c2ccc3c(ccn3C)c2)cc(OC)c1 [13a]: 0.1 µM
COc1cc(/C=C\c2ccc(OC)c(N)c2)cc(OC)c1 [4a]: 0.1 µM

Per the record, COc1cc2c(c(OC)c1OC)-c1ccc(OC)c(=O)cc1[C@@H](NC(C)=O)CC2 [colchicine, reference compound] has effective / active concentration of 0.1 µM

So for COc1ccc(/C=C\c2cc(OC)c(OC)c(OC)c2)cc1O [combretastatin A4, reference compound] , the logged effective / active concentration turned out to be 0.01 µM

Documented effective / active concentration of CC[C@]1(O)C[C@H]2CN(CCc3c([nH]c4ccccc34)[C@@](C(=O)OC)(c3cc4c(cc3OC)N(C=O)[C@H]3[C@@](O)(C(=O)OC)[C@H](OC(C)=O)[C@]5(CC)C=CCN6CC[C@]43[C@@H]65)C2)C1 [vincristine, reference compound] : 0.1 µM

====

system: UCI101 ovarian cancer cells; experiment: Western blot of signal transduction events, UCI101; type: cell-based; conditions: 0.1 μM
endpointLabel: phosphorylation of Stat3

COc1cc(/C=C\c2ccc3c(ccn3C)c2)cc(OC)c1 [13a]: more pronounced
CC[C@]1(O)C[C@H]2CN(CCc3c([nH]c4ccccc34)[C@@](C(=O)OC)(c3cc4c(cc3OC)N(C=O)[C@H]3[C@@](O)(C(=O)OC)[C@H](OC(C)=O)[C@]5(CC)C=CCN6CC[C@]43[C@@H]65)C2)C1 [vincristine, reference compound]: more pronounced
